# protocol: Apparent permeability from apical to basolateral side in human Caco2 cells
# Type: ADME, cell-based
# cond: Caco-2
test-readout: Papp A→B (×10⁻⁶ cm/s)

structure_string=CNC(=O)c1ncn(-c2ccc(NC(=O)C3CCN(c4ncccc4Cl)CC3)cc2Cl)n1 test_readout="Papp A→B" observed_measurement=8.2

(A) Cc1cn(-c2cc(NC(=O)C3CCN(c4ncccc4Cl)CC3)cc(C(F)(F)F)c2)cn1
(B) Nc1cccnc1N1CCC(C(=O)Nc2ccc(-n3nccn3)c(Cl)c2)CC1
I need your help: which of the pair A , B has higher Papp A→B? Select an item and report its label. B
(B: 19.4 ×10⁻⁶ cm/s, A: 7.2 ×10⁻⁶ cm/s)

====

# assayed-system: Mucosa-associated lymphoid tissue lymphoma translocation protein 1 (Homo sapiens)
# protocol: Inhibition of MALT1 (unknown origin) using Ac-Trp-Leu-Arg-Ser-Arg'Cys(PT14)-NH2 as substrate preincubated for 60 mins followed by substrate addition measured after 60 mins by fluorescence assay
# Sequence (Q9UDY8 whole entry, the tested form may be a part): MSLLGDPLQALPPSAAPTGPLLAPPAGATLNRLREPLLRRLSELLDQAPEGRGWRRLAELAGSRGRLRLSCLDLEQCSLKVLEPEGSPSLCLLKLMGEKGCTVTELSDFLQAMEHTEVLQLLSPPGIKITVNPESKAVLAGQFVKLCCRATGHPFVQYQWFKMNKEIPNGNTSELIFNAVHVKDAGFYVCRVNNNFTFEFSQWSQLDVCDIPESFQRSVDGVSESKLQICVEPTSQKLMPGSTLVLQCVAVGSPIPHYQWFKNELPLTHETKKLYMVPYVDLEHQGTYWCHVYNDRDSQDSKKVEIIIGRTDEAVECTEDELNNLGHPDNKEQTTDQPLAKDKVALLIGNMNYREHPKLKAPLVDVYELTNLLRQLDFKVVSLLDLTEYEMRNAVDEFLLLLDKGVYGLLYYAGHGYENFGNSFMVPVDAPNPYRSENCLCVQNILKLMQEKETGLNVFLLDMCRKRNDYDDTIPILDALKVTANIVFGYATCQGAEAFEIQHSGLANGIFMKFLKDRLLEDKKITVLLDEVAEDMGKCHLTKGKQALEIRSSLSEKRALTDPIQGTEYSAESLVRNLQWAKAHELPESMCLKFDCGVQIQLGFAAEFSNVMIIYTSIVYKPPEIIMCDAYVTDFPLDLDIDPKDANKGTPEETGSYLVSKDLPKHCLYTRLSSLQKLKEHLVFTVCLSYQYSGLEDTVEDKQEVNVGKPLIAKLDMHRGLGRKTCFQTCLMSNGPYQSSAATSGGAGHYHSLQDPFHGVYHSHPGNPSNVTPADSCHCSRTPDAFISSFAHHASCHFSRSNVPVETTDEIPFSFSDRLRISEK
test-readout: IC50 (µM)

structure_string=Cc1cn(-c2cc(NC(=O)C3CCN(c4ncccc4Cl)CC3)cc(C(F)(F)F)c2)cn1 assayed_system="Mucosa-associated lymphoid tissue lymphoma translocation protein 1 (Homo sapiens)" unit_label=µM observed_measurement=0.34
structure_string=O=C(Nc1ccc(F)c(Cl)c1)C1CCN(c2ccccn2)CC1 assayed_system="Mucosa-associated lymphoid tissue lymphoma translocation protein 1 (Homo sapiens)" unit_label=µM observed_measurement=1.9
structure_string=Nc1cccnc1N1CCC(C(=O)Nc2ccc(F)c(Cl)c2)CC1 assayed_system="Mucosa-associated lymphoid tissue lymphoma translocation protein 1 (Homo sapiens)" unit_label=µM observed_measurement=0.1
structure_string=Nc1cccnc1N1CCC(C(=O)Nc2ccc(-n3nccn3)c(Cl)c2)CC1 assayed_system="Mucosa-associated lymphoid tissue lymphoma translocation protein 1 (Homo sapiens)" unit_label=µM observed_measurement=0.035

(1) Nc1cccnc1N1CCC(C(=O)Nc2cnc(-n3nccn3)c(Cl)c2)CC1
(2) COc1ncc(NC(=O)C2CCN(c3ncccc3Cl)CC2)cc1Cl
(3) CNC(=O)c1ncn(-c2ccc(NC(=O)C3CCN(c4ncccc4Cl)CC3)cc2Cl)n1
(4) O=C(Nc1ccc(F)c(Cl)c1)C1CCN(c2ccccc2)CC1
Rank items: key IC50, increasing. A complete answer lists every label in the requested sequence. 1, 2, 3, 4

(1) O=C(Nc1ccc(F)c(Cl)c1)C1CCN(c2nccnc2Cl)CC1
(2) O=C(Nc1ccc(F)c(Cl)c1)C1CCN(c2ncccc2Cl)CC1
So which one has the bigger IC50 here, 1 or 2 ? Respond with the label that goes with your answer. 1

====

# protocol: Half life in rat at 1 mg/kg, iv or 3 mg/kg, po
# Format: ADME, organism-based
# cond: in vivo
test-readout: half-life (min)

structure_string=Cc1nc(C)n(-c2ccc(NC(=O)C3CCN(c4ncccc4[N+](=O)[O-])CC3)cc2Cl)n1 test_readout=half-life observed_measurement=30

(a) Cc1cn(-c2cc(NC(=O)C3CCN(c4ncccc4Cl)CC3)cc(C(F)(F)F)c2)cn1
(b) Nc1cccnc1N1CCC(C(=O)Nc2ccc(-n3nccn3)c(Cl)c2)CC1
(c) CNC(=O)c1ncn(-c2ccc(NC(=O)C3CCN(c4ncccc4Cl)CC3)cc2Cl)n1
Arrange these molecules by their half-life, starting with the largest number. To answer, write out the labels according to the requested order. a, c, b

====

# protocol: Clearance in rat at 1 mg/kg, iv or 3 mg/kg, po
# Format: ADME, organism-based
# cond: in vivo
test-readout: clearance (mL/min/kg)

// known answers, use as guide
structure_string=Cc1ccc(NC(=O)C2CCN(c3ncccc3Cl)CC2)cc1Cl test_readout=clearance observed_measurement=320
structure_string=Cc1nc(C)n(-c2ccc(NC(=O)C3CCN(c4ncccc4[N+](=O)[O-])CC3)cc2Cl)n1 test_readout=clearance observed_measurement=43
structure_string=Nc1cccnc1N1CCC(C(=O)Nc2ccc(-n3nccn3)c(Cl)c2)CC1 test_readout=clearance observed_measurement=259

(A) CNC(=O)c1ncn(-c2ccc(NC(=O)C3CCN(c4ncccc4Cl)CC3)cc2Cl)n1
(B) Cc1cn(-c2cc(NC(=O)C3CCN(c4ncccc4Cl)CC3)cc(C(F)(F)F)c2)cn1
Which record would sort first by descending clearance, A or B ? Write the label of whichever entry you select. A
(A: 282 mL/min/kg, B: 56 mL/min/kg)

====

# protocol: Volume of distribution at steady state in rat at 1 mg/kg, iv or 3 mg/kg, po
# Type: ADME, organism-based
# cond: in vivo, read-out: Vdss
test-readout: Vd (L/kg)

structure_string=CNC(=O)c1ncn(-c2ccc(NC(=O)C3CCN(c4ncccc4Cl)CC3)cc2Cl)n1 observed_measurement=7.5
structure_string=Cc1nc(C)n(-c2ccc(NC(=O)C3CCN(c4ncccc4[N+](=O)[O-])CC3)cc2Cl)n1 observed_measurement=1.1

(P) Cc1ccc(NC(=O)C2CCN(c3ncccc3Cl)CC2)cc1Cl
(Q) Cc1cn(-c2cc(NC(=O)C3CCN(c4ncccc4Cl)CC3)cc(C(F)(F)F)c2)cn1
(R) Nc1cccnc1N1CCC(C(=O)Nc2ccc(-n3nccn3)c(Cl)c2)CC1
Sort low-to-high on Vd, please. Returns: the labels arranged in the requested order. R, Q, P
(R: 4.1 L/kg, Q: 8.7 L/kg, P: 21.4 L/kg)

====

# protocol: Solubility of the compound in buffer at pH 4
# Assay type: physicochemical
test-readout: solubility (µM)

(A) Nc1cccnc1N1CCC(C(=O)Nc2ccc(-n3nccn3)c(Cl)c2)CC1
(B) Cc1cn(-c2cc(NC(=O)C3CCN(c4ncccc4Cl)CC3)cc(C(F)(F)F)c2)cn1
(C) Cc1nc(C)n(-c2ccc(NC(=O)C3CCN(c4ncccc4[N+](=O)[O-])CC3)cc2Cl)n1
(D) CNC(=O)c1ncn(-c2ccc(NC(=O)C3CCN(c4ncccc4Cl)CC3)cc2Cl)n1
Arrange the 4 compounds by rising solubility, starting with the smallest. Provide your answer as the labels ordered per the instruction. D, A, C, B
(D: 8 µM, A: 48 µM, C: 170 µM, B: 690 µM)

====

# protocol: Solubility of the compound in buffer at pH 6.8
# Type: physicochemical
test-readout: solubility (µM)

(I) Cc1nc(C)n(-c2ccc(NC(=O)C3CCN(c4ncccc4[N+](=O)[O-])CC3)cc2Cl)n1
(II) Cc1cn(-c2cc(NC(=O)C3CCN(c4ncccc4Cl)CC3)cc(C(F)(F)F)c2)cn1
Which item exceeds the other in solubility, I or II ? In your reply, give the label of the chosen option. II
(II: 16 µM, I: 7 µM)

====

# assayed-system: Mucosa-associated lymphoid tissue lymphoma translocation protein 1 (Homo sapiens)
# protocol: Inhibition of cIAP2 fused MALT1 (unknown origin) expressed in HEK293 cells assessed as suppression of NF-kB activation after 24 hrs by luciferase reporter gene assay
# Assay type: cell-based
# Sequence (Q9UDY8 2-824 limits assumed): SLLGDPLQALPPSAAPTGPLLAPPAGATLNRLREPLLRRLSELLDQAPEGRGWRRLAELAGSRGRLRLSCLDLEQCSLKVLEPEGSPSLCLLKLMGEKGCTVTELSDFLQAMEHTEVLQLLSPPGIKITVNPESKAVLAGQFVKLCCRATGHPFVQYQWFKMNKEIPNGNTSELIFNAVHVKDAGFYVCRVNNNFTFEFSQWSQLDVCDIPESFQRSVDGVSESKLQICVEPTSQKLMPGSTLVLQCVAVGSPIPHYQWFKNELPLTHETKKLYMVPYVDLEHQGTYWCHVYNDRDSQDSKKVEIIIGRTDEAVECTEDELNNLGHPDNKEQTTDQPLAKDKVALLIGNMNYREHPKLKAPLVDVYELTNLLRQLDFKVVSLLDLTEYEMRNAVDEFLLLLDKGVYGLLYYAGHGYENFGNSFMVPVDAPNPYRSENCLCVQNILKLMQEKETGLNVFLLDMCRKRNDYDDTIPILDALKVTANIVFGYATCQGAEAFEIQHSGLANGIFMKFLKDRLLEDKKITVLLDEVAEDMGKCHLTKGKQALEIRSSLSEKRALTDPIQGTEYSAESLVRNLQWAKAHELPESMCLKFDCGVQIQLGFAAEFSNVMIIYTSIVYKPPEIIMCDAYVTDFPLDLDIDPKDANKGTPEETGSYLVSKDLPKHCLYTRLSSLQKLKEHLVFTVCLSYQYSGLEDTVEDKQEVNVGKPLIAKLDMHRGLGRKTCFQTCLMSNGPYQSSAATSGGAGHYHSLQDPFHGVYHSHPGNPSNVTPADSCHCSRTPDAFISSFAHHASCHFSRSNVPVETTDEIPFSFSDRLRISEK
pIC50: −log10 of the molar value.
test-readout: pIC50

Study these solved cases before continuing.
structure_string=O=C(Nc1cnc(-n2nccn2)c(Cl)c1)C1CCN(c2ncccc2Cl)CC1 test_readout=pIC50 observed_measurement=7.05
structure_string=O=C(Nc1ccc(F)c(Cl)c1)C1CCN(c2ccccc2)CC1 test_readout=pIC50 observed_measurement=5.49
structure_string=Nc1cccnc1N1CCC(C(=O)Nc2ccc(F)c(Cl)c2)CC1 test_readout=pIC50 observed_measurement=6.38
structure_string=O=C(Nc1ccc(F)c(Cl)c1)C1CCN(c2ncccn2)CC1 test_readout=pIC50 observed_measurement=5.51
structure_string=O=C(Nc1ccc(F)c(Cl)c1)C1CCN(c2ncccc2Cl)CC1 test_readout=pIC50 observed_measurement=5.87
structure_string=Cc1nc(C)n(-c2ccc(NC(=O)C3CCN(c4ncccc4[N+](=O)[O-])CC3)cc2Cl)n1 test_readout=pIC50 observed_measurement=6.19
structure_string=Cc1ccc(NC(=O)C2CCN(c3ncccc3Cl)CC2)cc1Cl test_readout=pIC50 observed_measurement=5.43
structure_string=O=C(Nc1ccc(F)c(Cl)c1)C1CCN(c2nccnc2Cl)CC1 test_readout=pIC50 observed_measurement=6.54
structure_string=Nc1cccnc1N1CCC(C(=O)Nc2cnc(-n3nccn3)c(Cl)c2)CC1 test_readout=pIC50 observed_measurement=7.05
structure_string=Nc1cccnc1N1CCC(C(=O)Nc2ccc(-n3nccn3)c(Cl)c2)CC1 test_readout=pIC50 observed_measurement=6.96

(1) COc1ncc(NC(=O)C2CCN(c3ncccc3Cl)CC2)cc1Cl
(2) Cc1cn(-c2cc(NC(=O)C3CCN(c4ncccc4Cl)CC3)cc(C(F)(F)F)c2)cn1
(3) O=C(Nc1cccc(Cl)c1)C1CCN(c2ncccc2Cl)CC1
Arrange the 3 entries by pIC50 so the values rise. Record the ranking as a list of labels in the requested order. 2, 3, 1

(1) N#Cc1cccnc1N1CCC(C(=O)Nc2ccc(F)c(Cl)c2)CC1
(2) CNC(=O)c1ncn(-c2ccc(NC(=O)C3CCN(c4ncccc4Cl)CC3)cc2Cl)n1
Which one would you say has the larger pIC50 value: 1 , or 2 ? Could you answer with the label of the item you picked? 2
(2: 6.85, 1: 5.57)

The measured values listed here are drawn from ChEMBL document CHEMBL4118176.
